Source: ChEMBL document CHEMBL3124859

Below: a set of entries, each annotated with reported EC50.
System: Hepatitis C virus
MEASUREMENT_PROTOCOL: Antiviral activity against Hepatitis C virus genotype 1b infected in human HuH7 cells by subgenomic replicon-based luciferase assay
Assay type: functional, organism-based, Hepacivirus hominis
REPORTED_CONDITIONS: Huh-7
Entry rule: numbers only, all in µM.

[[record]]
molecule = "C=CCCCS(=O)(=O)NC(=O)c1ccccc1NC(=O)C(NC(=O)[C@@H](NC(=O)OC(C)(C)C)C(C)(C)C)c1ccc(Oc2cc(OC)nc(-c3ccccc3)n2)c(C=C)c1 (mixture of isomers)"
result_number = 12.5


Okay, now this molecule:
Name the reported EC50 value associated with the molecule C=Cc1cc(C(NC(=O)OC(C)(C)C)C(=O)Nc2cccc(C(=O)NS(=O)(=O)c3ccc(C(F)(F)F)cc3)c2)ccc1Oc1cc(OC)nc(-c2ccccc2)n1 (stereo not drawn)
27.5

---

Below, each entry is listed with its recorded solubility at 1 h.
MEASUREMENT_PROTOCOL: Solubility of the compound in phosphate buffered saline at pH 7.4 after 1 hr by LC-MS/MS analysis
State just the number; it will be interpreted in µM.

Sample records with solubility at 1 h:
[[record]]
compound = "C=CCCCS(=O)(=O)NC(=O)c1ccccc1NC(=O)[C@@H](NC(=O)OC(C)(C)C)c1ccc(Oc2cc(OC)nc(-c3ccccc3)n2)c(C=C)c1"
metric_name = "solubility at 1 h"
measure_unit = "µM"
result_number = 101

[[record]]
compound = "C=Cc1cc([C@H](NC(=O)[C@@H](NC(=O)OC(C)(C)C)C(C)(C)C)C(=O)Nc2cccc(C(=O)NS(=O)(=O)c3ccc(C(F)(F)F)cc3)c2)ccc1Oc1cc(OC)nc(-c2ccccc2)n1"
metric_name = "solubility at 1 h"
measure_unit = "µM"
result_number = 43


Kindly review the next compound as well.
State the recorded solubility at 1 h for this entry: C=Cc1cc(C(NC(=O)OC(C)(C)C)C(=O)Nc2ccccc2C(=O)NS(=O)(=O)c2ccc(C(F)(F)F)cc2)ccc1Oc1cc(OC)nc(-c2ccccc2)n1 (stereo not drawn)
5
